The reported measurements were obtained from patent US20220340598A1.

Biological target: NIH/3T3 cells overexpressing FGFR3 V555M-TACC3 fusion protein (Homo sapiens, UniProt P22607, V555M, cells depend on it)
Construct: fused on or other part: Q9Y6A5 (Transforming acidic coiled-coil-containing protein 3)
Sequence (P22607 whole entry V555M, the tested form may be a part): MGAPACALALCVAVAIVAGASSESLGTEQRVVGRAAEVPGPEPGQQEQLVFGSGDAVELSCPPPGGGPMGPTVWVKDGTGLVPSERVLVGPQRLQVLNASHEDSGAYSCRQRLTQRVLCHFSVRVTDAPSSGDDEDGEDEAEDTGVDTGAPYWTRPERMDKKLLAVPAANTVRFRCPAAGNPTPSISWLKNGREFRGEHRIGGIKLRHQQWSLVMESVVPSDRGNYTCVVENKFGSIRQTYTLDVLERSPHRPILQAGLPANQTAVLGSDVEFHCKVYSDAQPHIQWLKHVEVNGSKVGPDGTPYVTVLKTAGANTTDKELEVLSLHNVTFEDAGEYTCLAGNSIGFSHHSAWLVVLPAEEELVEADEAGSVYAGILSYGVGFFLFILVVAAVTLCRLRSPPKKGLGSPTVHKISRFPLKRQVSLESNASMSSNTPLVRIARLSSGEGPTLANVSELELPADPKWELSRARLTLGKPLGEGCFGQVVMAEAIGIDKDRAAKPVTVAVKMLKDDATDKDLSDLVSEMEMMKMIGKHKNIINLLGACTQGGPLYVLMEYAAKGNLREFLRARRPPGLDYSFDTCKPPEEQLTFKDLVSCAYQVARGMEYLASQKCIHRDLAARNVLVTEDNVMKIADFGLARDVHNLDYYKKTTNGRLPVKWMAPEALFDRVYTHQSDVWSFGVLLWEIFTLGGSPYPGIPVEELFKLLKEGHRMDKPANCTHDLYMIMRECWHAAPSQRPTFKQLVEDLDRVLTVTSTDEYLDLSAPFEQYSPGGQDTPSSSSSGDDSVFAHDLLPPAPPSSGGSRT
Assay: NIH/3T3 FGFR3 V555M-TACC3 cell proliferation assay
Type: cell-based
Details: 72-hr incubation, CellTiter Glo; read-out: NIH/3T3 FGFR3 V555M-TACC3 CTG (IC50)
Description: NIH/3T3 FGFR3 V555M-TACC3 Cell Proliferation Assay In day 1, 90 μL of cell suspension (NIH/3T3 cells overexpressing FGFR3 V555M-TACC3 fusion protein) (total 30,000 cells per well in growth medium (DMEM containing 1% Glutamax, 10% FBS and 1% Pen/Strep)) was seeded in a 96-well plate and then incubated overnight at 37° C. and 5% CO2. […]
Some compounds, each annotated with its measured GI50.
Response body: numeric value in nM, unit text excluded.

Example compounds with recorded GI50:
CCn1cc2[nH]c(=O)c(-c3nc4c(F)c(OC)c(OC)cc4[nH]3)c(N[C@@H](C)c3ncccn3)c2n1 [Compound 41] ... 55.6
CCn1cc2[nH]c(=O)c(-c3nc4cc(OC)c(OC)cc4[nH]3)c(N[C@@H](C)c3ncccn3)c2n1 [Compound 37] ... 29.6
CC[C@H](Nc1c(-c2nc3ccc(OCCOC)cc3[nH]2)c(=O)[nH]c2cn(C)nc12)c1ncccn1 (single isomer, unassigned) [Compound 48] ... 112

Task: If you can, please state the reported GI50 value of CCn1cc2[nH]c(=O)c(-c3nc4ccc(OCCOC)cc4[nH]3)c(N[C@@H](C)c3ncccn3)c2n1 [Compound 54] .
Result: 21.6

Task: What do you get for CC[C@H](Nc1c(-c2nc3cnc(N(C)C)cc3[nH]2)c(=O)[nH]c2cn(C)nc12)c1ncccn1 [Compound 22] ?
Result: 24.6

Task: What do you get for COc1cnc2nc(-c3c(N[C@@H](C)c4ncccn4)c4nn(C)cc4[nH]c3=O)[nH]c2c1 [Compound 3] ?
Result: 32.6

Task: What do you get for CC(C)[C@H](Nc1c(-c2nc3ncc(N(C)C)cc3[nH]2)c(=O)[nH]c2cn(C)nc12)c1ncccn1 (stereo in doubt) [Compound 23] ?
Result: 37.3

* * *

Some compounds, each annotated with its measured IC50.
molecular target: human FGFR3 wild type enzyme (cytoplasmic domain) (Homo sapiens)
Sequence (P22607 397-806): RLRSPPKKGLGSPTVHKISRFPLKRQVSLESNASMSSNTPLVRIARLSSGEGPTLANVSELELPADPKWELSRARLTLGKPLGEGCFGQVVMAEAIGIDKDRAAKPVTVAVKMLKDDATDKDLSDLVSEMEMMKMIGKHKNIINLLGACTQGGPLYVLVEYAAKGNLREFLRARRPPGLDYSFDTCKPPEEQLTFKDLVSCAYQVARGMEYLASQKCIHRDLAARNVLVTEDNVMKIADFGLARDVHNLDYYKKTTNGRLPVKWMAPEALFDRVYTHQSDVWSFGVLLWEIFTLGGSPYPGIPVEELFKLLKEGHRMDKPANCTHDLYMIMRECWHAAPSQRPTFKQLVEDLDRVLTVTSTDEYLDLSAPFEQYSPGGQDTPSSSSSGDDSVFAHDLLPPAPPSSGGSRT
Response body: numeric value in nM, unit text excluded.

Example compounds with recorded IC50:
CC[C@H](Nc1c(-c2nc3ccc(OC)cc3[nH]2)c(=O)[nH]c2cn(C)nc12)c1ncccn1 (single isomer, unassigned) ... 1360
CC(C)C(Nc1c(-c2nc3ccc(C(=O)N(C)C)cc3[nH]2)c(=O)[nH]c2cn(C)nc12)c1ncccn1 (single isomer, unassigned) ... 2.57

Alright, here's another compound for you.
Task: If you can, please state the reported IC50 value of CCn1cc2[nH]c(=O)c(-c3nc4cc(OC)c(OC)cc4[nH]3)c(NC(C)c3cocn3)c2n1 (single isomer, unassigned) .
Result: 978

* * *

target: NIH/3T3 cells overexpressing FGFR3 V555M-TACC3 fusion protein (Homo sapiens, UniProt P22607, V555M, cells depend on it); construct: fused on or other part: Q9Y6A5 (Transforming acidic coiled-coil-containing protein 3); assay: NIH/3T3 FGFR3 V555M-TACC3 cell proliferation assay; format: cell-based; settings: 72-hr incubation, CellTiter Glo; read-out: NIH/3T3 FGFR3 V555M-TACC3 CTG (IC50)
PARAMETER_MEASURED: GI50 (nM)
Response body: numeric value in nM, unit text excluded.

CCC(Nc1c(-c2nc3cc(OC)c(OC)cc3[nH]2)c(=O)[nH]c2cn(C)nc12)c1ncccn1 (single isomer, unassigned) ... 18.2
CCn1cc2[nH]c(=O)c(-c3nc4c(OC)cccc4[nH]3)c(N[C@@H](C)c3ncccn3)c2n1 ... 69.6
CCC(Nc1c(-c2nc3cc(OC)c(OC)cc3[nH]2)c(=O)[nH]c2cn(CC)nc12)c1ncccn1 (single isomer, unassigned) ... 51.6

Task: If you can, please state the reported GI50 value of `COc1cc(OC)c2nc(-c3c(N[C@@H](C)c4ncccn4)c4nn(C)cc4[nH]c3=O)[nH]c2c1` .
Result: 20.8
